Measured abundance fitness, listed per entry.
B1: DNA topoisomerase 3-alpha, residues 812 to 851; numbered along this chain, Q13472 (parent)
chain: TCNCGQEAVLLTVRKEGPNRGRQFFKCNGGSCNFFLWADS

- Variants of: B1
- Assay Info: abundance fitness (aPCA) (normalised: wild type 0, dead -1); higher = more abundant; growth selection in yeast, the domain comes from the species named
- Condition Details: Homo sapiens
Property: abundance fitness

INSERT INTO measurements (record_sequence, meas_value) VALUES
  ('TCNCGQEAVLLTVRKEGPNCGRQFFKCNGGSCNFFLWADS', -0.549),
  ('TCNCGQEAVLLTVRKEGPNRGRQFFKTNGGSCNFFLWADS', -0.86),
  ('TCNCGQEAVLWTVRKEGPNRGRQFFKCNGGSCNFFLWADS', -0.072),
  ('TCNCGQEAVLLAVRKEGPNRGRQFFKCNGGSCNFFLWADS', -0.59),
  ('TCNCGQEAVLLTVRKEGPWRGRQFFKCNGGSCNFFLWADS', -0.454),
  ('TCNCGQEAVKLTVRKEGPNRGRQFFKCNGGSCNFFLWADS', -0.065),
  ('TCNCGQEAVLLTVRKEGPNRGRQFFKCNGGSCNFFRWADS', 0.013),
  ('TCNCGQEAVLLTVRKEGPNRGRQFFKCNGGSTNFFLWADS', -0.854),
  ('TCNCGQEAVLLTVRKEGPMRGRQFFKCNGGSCNFFLWADS', 0.085),
  ('TCNCMQEAVLLTVRKEGPNRGRQFFKCNGGSCNFFLWADS', -0.267),
  ('TCNCGQEAVLLTVRKEGPHRGRQFFKCNGGSCNFFLWADS', 0.157),
  ('TCNCGQEAVLLTVRKEGPNRGRQFFKCNGGKCNFFLWADS', 0.112),
  ('TCNCGQEAVLLTVRKEGPNRGRQFRKCNGGSCNFFLWADS', -0.412),
  ('TCNCGQEAVLSTVRKEGPNRGRQFFKCNGGSCNFFLWADS', 0.008),
  ('TCNCGQEASLLTVRKEGPNRGRQFFKCNGGSCNFFLWADS', -0.194),
  ('TCNVGQEAVLLTVRKEGPNRGRQFFKCNGGSCNFFLWADS', -1.09),
  ('TCNCGQEAVLLTVRKEGPNRGRQFFKCNGGSCLFFLWADS', -0.892),
  ('TCNCGQEAVLLTVRKEGPNRGRQFFLCNGGSCNFFLWADS', -0.318),
  ('TCNCGQEAVLLTVRKEGPNRGRQFFKCNGLSCNFFLWADS', -0.473),
  ('TCRCGQEAVLLTVRKEGPNRGRQFFKCNGGSCNFFLWADS', -0.539),
  ('TCNCGQPAVLLTVRKEGPNRGRQFFKCNGGSCNFFLWADS', -0.023),
  ('TCNCGQEALLLTVRKEGPNRGRQFFKCNGGSCNFFLWADS', 0.12),
  ('TCNCGQEAVLLTVRKEGPNRGRQFFKCNTGSCNFFLWADS', -0.371),
  ('TCNCGQEAVLLTVRKEAPNRGRQFFKCNGGSCNFFLWADS', -0.676),
  ('TCNCGQEAVLLTVRKEGVNRGRQFFKCNGGSCNFFLWADS', -0.149),
  ('TCNCGQEAVLLTVRKEGPNRGRQFFKCNGGMCNFFLWADS', -0.13),
  ('TCNCGQEAVLLTVRKEWPNRGRQFFKCNGGSCNFFLWADS', -0.684),
  ('TCNCGQEAVLLTVRKEGPNRGRQFFKCNGGSCNFFLTADS', -0.483),
  ('TCNCGQEAVLLTVRKEGPNWGRQFFKCNGGSCNFFLWADS', -0.271),
  ('TCNCGVEAVLLTVRKEGPNRGRQFFKCNGGSCNFFLWADS', -0.338),
  ('TCNCGQEAVLLTVRKEGPNRGRTFFKCNGGSCNFFLWADS', -0.219),
  ('TCNCGQEAVLLTVAKEGPNRGRQFFKCNGGSCNFFLWADS', -0.006),
  ('TCNCGQEAVLLTVRNEGPNRGRQFFKCNGGSCNFFLWADS', 0.031),
  ('TCNCGAEAVLLTVRKEGPNRGRQFFKCNGGSCNFFLWADS', 0.229),
  ('TCNCGQEAVLLTVRLEGPNRGRQFFKCNGGSCNFFLWADS', -0.325),
  ('TCNCGQEAVLLTVRKLGPNRGRQFFKCNGGSCNFFLWADS', -0.246),
  ('TCNCGQEAVLLTVRKEGPNRGRQFFKCWGGSCNFFLWADS', 0.079),
  ('TCNCGQEAVLLTVNKEGPNRGRQFFKCNGGSCNFFLWADS', -0.166),
  ('TCNCGQEAVLLTVRKEGPNRGAQFFKCNGGSCNFFLWADS', -0.401),
  ('TCNCGQEAVLLTVRKEGPNRGMQFFKCNGGSCNFFLWADS', -0.677),
  ('TCNCGQEAVLLTVRKEGPNSGRQFFKCNGGSCNFFLWADS', -0.167),
  ('TCNCGQEAVLLTVRKEGPNPGRQFFKCNGGSCNFFLWADS', -0.227),
  ('TCNCGQEAVLLTVRKEGPNRGRQFFKCNGGSCVFFLWADS', -0.7),
  ('WCNCGQEAVLLTVRKEGPNRGRQFFKCNGGSCNFFLWADS', -0.858),
  ('TCNCGQEAVLLTVRKEGPNDGRQFFKCNGGSCNFFLWADS', 0.22),
  ('TCNCGQEAVLLTVRKEGPNRGRQFFKCNGGSCNRFLWADS', -0.374);

The reported numbers originate from the Human Domainome abundance scans (Beltran et al. 2025).
